Entry source: patent US5663331A

System: Pseudomonas aeurginosa NCTC 10490
test_summary: MIC, two-fold dilution method, Pseudomonas aeurginosa NCTC 10490
Format: cell-based
condition_details: NCTC10490, Muller Hinton Broth, 10^6 CFU per ml, 37° C., 18 to 20 hours, read-out: Antibacterial Activity (MIC)
outcome_measure: MIC (µg/mL)
All answers are understood in µg/mL, so give the number only.

Example entries begin here.
What the record says about C#CCO/N=C(\C(=O)NC1C(=O)N2C(C(=O)[O-])=C(CSc3cc[n+](C4CC4)c4cc(N5CCNCC5)c(F)cc34)CS[C@H]12)c1csc(N)n1 (stereo partly drawn) [Compound I-41] : MIC is 3.13

Short answer for C=CCO/N=C(\C(=O)NC1C(=O)N2C(C(=O)[O-])=C(CSc3cc[n+](C4CC4)c4cc(N5CCN(C)CC5)c(F)cc34)CSC12)c1csc(N)n1 (stereo not drawn) [Compound I-26] : MIC was 0.39

// moving on: another record for MIC
// recorded MIC for C#CCO/N=C(\C(=O)NC1C(=O)N2C(C(=O)[O-])=C(CSc3cc[n+](C)c4cc(N5CCN(C)CC5)c(F)cc34)CSC12)c1csc(N)n1 (stereo not drawn) [Compound I-38] : 0.78
